Entry source: patent US8178506B2

Tested on: T47D cells
Assay: Caspase-3 activity assay (apoptosis) in T47D cells
Settings: T47D cells, 200 nM, 48 hours, relative to untreated control
In the oligonucleotide strings, read from the 5' end, every base follows the letter of its sugar. An asterisk marks phosphorothioate; unmarked linkages are phosphodiester. Other units and linkages are bracketed, terminal groups are in braces. A string of capitals states the bases alone. e = 2'-O-(2-methoxyethyl) (MOE); [5mC] = 5-methylcytosine; d = 2'-deoxy (DNA)
Overview of reported Fold Increase over UTC (caspase activity) across a group of substances:
outcome measure: Fold Increase over UTC (caspase activity)

[
  {
    "substance": "328424 (antisense eA*eG*eG*eA*eA*dG*d[5mC]*dA*d[5mC]*dA*d[5mC]*dA*dT*dT*dA*eT*e[5mC]*eA*e[5mC]*eA) [compound 328424]",
    "assay system": "T47D cells",
    "experimental value": 0.9
  },
  {
    "substance": "328417 (antisense eT*eA*eA*eT*eT*dT*dT*dA*dG*dA*dA*dT*d[5mC]*dT*dT*eA*eA*e[5mC]*eG*e[5mC]) [compound 328417]",
    "assay system": "T47D cells",
    "experimental value": 1.0
  },
  {
    "substance": "NNNNNNNNNNNNNNNNNNNN [ISIS 29848, reference compound]",
    "assay system": "T47D cells",
    "experimental value": 3.5
  }
]

----------
Test system: adipocytes
Test: Triglyceride accumulation assay in adipocytes
Type: cell-based, human
Conditions: differentiating adipocytes transfected with oligomeric compound; Table 75
In the oligonucleotide strings, read from the 5' end, every base follows the letter of its sugar. An asterisk marks phosphorothioate; unmarked linkages are phosphodiester. Other units and linkages are bracketed, terminal groups are in braces. A string of capitals states the bases alone. e = 2'-O-(2-methoxyethyl) (MOE); [5mC] = 5-methylcytosine
Recorded TG (triglyceride accumulation) values for a group of substances are listed next.

[
  {
    "substance": "328139 (eT*eA*e[5mC]*eT*eT*eT*eT*e[5mC]*eA*eT*eT*e[5mC]*e[5mC]*e[5mC]*e[5mC]*eT*e[5mC]*eA*e[5mC]*e[5mC]*eA; anti-miR) [compound 328139]",
    "TG (triglyceride accumulation)": "90 percentage of untreated control (UTC)"
  },
  {
    "substance": "328138 (eG*eA*eG*e[5mC]*eT*eG*e[5mC]*eT*e[5mC]*eA*eG*e[5mC]*eT*eG*eG*e[5mC]*e[5mC]*eA*eT*e[5mC]*eA; anti-miR) [compound 328138]",
    "TG (triglyceride accumulation)": "80 percentage of untreated control (UTC)"
  },
  {
    "substance": "328122 (antisense e[5mC]*eA*eA*eA*eA*e[5mC]*eA*eT*eA*eA*eA*eA*eA*eT*e[5mC]*e[5mC]*eT*eT*eG*e[5mC]*eA) [compound 328122]",
    "TG (triglyceride accumulation)": "97 percentage of untreated control (UTC)"
  }
]

----------
Test system: Glut4
Assay: Glut4 mRNA expression in adipocytes (real-time PCR)
Type: cell-based, human
Conditions: Table 18; differentiating adipocytes; control = treatment with ISIS 342673
In the oligonucleotide strings, read from the 5' end, every base follows the letter of its sugar. An asterisk marks phosphorothioate; unmarked linkages are phosphodiester. Other units and linkages are bracketed, terminal groups are in braces. A string of capitals states the bases alone. e = 2'-O-(2-methoxyethyl) (MOE); [5mC] = 5-methylcytosine; d = 2'-deoxy (DNA)
outcome measure: GLUT4 mRNA

[
  {
    "substance": "328115 (antisense eA*eG*eA*eA*eG*eG*eT*eG*eG*eG*eG*eA*eG*e[5mC]*eA*eG*e[5mC]*eG*eT*e[5mC]*eA) [compound 328115]",
    "outcome measure": "GLUT4 mRNA",
    "experimental value": "132.0 percentage of control"
  },
  {
    "substance": "341803 (antisense CCACACACTTCCTTACATTCCA; all 2'-MOE, all phosphorothioate, methylation of C not given here) [compound 341803]",
    "outcome measure": "GLUT4 mRNA",
    "experimental value": "86.8 percentage of control"
  },
  {
    "substance": "328104 (antisense eT*eA*eT*eG*eA*eT*eA*eG*e[5mC]*eT*eT*e[5mC]*e[5mC]*e[5mC]*e[5mC]*eA*eT*eG*eT*eA*eA) [compound 328104]",
    "outcome measure": "GLUT4 mRNA",
    "experimental value": "119.1 percentage of control"
  },
  {
    "substance": "105990 (antisense AGCAAAAGATCAATCCGTTA; sugars from the 5' end e5 d10 e5, backbone and methylation of C not given here) [compound 105990]",
    "outcome measure": "GLUT4 mRNA",
    "experimental value": "68.1 percentage of control"
  },
  {
    "substance": "341805 (antisense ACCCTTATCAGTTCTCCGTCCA; all 2'-MOE, all phosphorothioate, methylation of C not given here) [compound 341805]",
    "outcome measure": "GLUT4 mRNA",
    "experimental value": "88.2 percentage of control"
  }
]

----------
Test system: HeLa cells
Assay: Cell cycle assay in HeLa cells
Format: cell-based, human
Settings: HeLa cells, 150 nM oligomeric compound, 48 hours after treatment; relative to untreated control (UTC=100)
In the oligonucleotide strings, read from the 5' end, every base follows the letter of its sugar. An asterisk marks phosphorothioate; unmarked linkages are phosphodiester. Other units and linkages are bracketed, terminal groups are in braces. A string of capitals states the bases alone. e = 2'-O-(2-methoxyethyl) (MOE); [5mC] = 5-methylcytosine; d = 2'-deoxy (DNA)
outcome measure: % cells in cell cycle phase: aneuploid (%)

[
  {
    "substance": "340365 (antisense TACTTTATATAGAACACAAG; sugars from the 5' end e5 d10 e5, all phosphorothioate, methylation of C not given here) [compound 340365]",
    "assay system": "HeLa cells",
    "experimental value": 129
  },
  {
    "substance": "328647 (eG*eG*eA*eG*eT*dA*dG*dA*dT*dG*dA*dT*dG*dG*dT*eT*eA*eG*e[5mC]*e[5mC]; antisense) [compound 328647]",
    "assay system": "HeLa cells",
    "experimental value": 136
  },
  {
    "substance": "327896 (antisense eA*e[5mC]*eA*eG*eT*eT*e[5mC]*eT*eT*e[5mC]*eA*eA*e[5mC]*eT*eG*eG*e[5mC]*eA*eG*e[5mC]*eT*eT) [compound 327896]",
    "assay system": "HeLa cells",
    "experimental value": 66
  }
]

----------
The following substances are shown together with reported % cells in cell cycle phase: G2/M values.
Tested on: HeLa cells
Assay: Cell cycle assay in HeLa cells
Type: cell-based, human
Settings: HeLa cells, 150 nM oligomeric compound, 48 hours after treatment; relative to untreated control (UTC=100)
Protocol: In some embodiments, HeLa cells were plated on collagen-coated 24-well plates at 50,000-60,000 cells per well, and allowed to attach to wells overnight. […] In some embodiments, HeLa cells were also treated with oligomeric compounds targeting miRNAs. […] The cell cycle profile was analyzed with the ModFit program (Verity Software House, Inc., Topsham Me.). […]
In the oligonucleotide strings, read from the 5' end, every base follows the letter of its sugar. An asterisk marks phosphorothioate; unmarked linkages are phosphodiester. Other units and linkages are bracketed, terminal groups are in braces. A string of capitals states the bases alone. e = 2'-O-(2-methoxyethyl) (MOE); [5mC] = 5-methylcytosine; d = 2'-deoxy (DNA)
outcome measure: % cells in cell cycle phase: G2/M (%)

[
  {
    "substance": "327903 (antisense eA*eA*e[5mC]*eT*eA*eT*eA*e[5mC]*eA*eA*e[5mC]*e[5mC]*eT*eA*e[5mC]*eT*eA*e[5mC]*e[5mC]*eT*e[5mC]*eA) [compound 327903]",
    "experimental value": 98
  },
  {
    "substance": "328707 (eG*e[5mC]*eA*eA*e[5mC]*dA*dG*dG*d[5mC]*d[5mC]*dT*d[5mC]*dA*dA*dT*eA*eT*e[5mC]*eT*eT) [compound 328707]",
    "experimental value": 213
  },
  {
    "substance": "328421 (antisense eG*e[5mC]*eT*eT*eA*dG*d[5mC]*dT*dG*dT*dG*dT*d[5mC]*dT*dT*eA*e[5mC]*eA*eG*e[5mC]) [compound 328421]",
    "experimental value": 198
  },
  {
    "substance": "338769 (antisense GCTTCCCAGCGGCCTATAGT; all 2'-MOE, all phosphorothioate, methylation of C not given here) [compound 338769]",
    "experimental value": 149
  },
  {
    "substance": "328644 (eG*eA*e[5mC]*eA*eA*dG*dG*dT*dG*dG*dG*dA*dG*d[5mC]*dG*eA*eG*eT*eG*eG; antisense) [compound 328644]",
    "experimental value": 98
  }
]
